Record form. Attribute: inhibition. Fill in for each entry.
- System Tested: P2Y purinoceptor 2 (Homo sapiens)
- Sequence (P41231 whole entry): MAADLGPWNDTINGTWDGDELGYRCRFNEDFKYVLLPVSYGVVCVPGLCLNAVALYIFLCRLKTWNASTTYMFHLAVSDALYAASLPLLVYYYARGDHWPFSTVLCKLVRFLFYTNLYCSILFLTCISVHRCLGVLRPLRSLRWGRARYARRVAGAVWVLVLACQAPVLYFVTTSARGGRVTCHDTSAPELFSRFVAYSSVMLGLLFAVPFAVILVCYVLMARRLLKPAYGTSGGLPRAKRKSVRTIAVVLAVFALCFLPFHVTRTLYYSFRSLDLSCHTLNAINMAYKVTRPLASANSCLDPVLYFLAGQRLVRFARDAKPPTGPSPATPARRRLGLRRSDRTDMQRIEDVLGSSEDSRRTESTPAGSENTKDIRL
- Protocol Details: Antagonist activity at human P2Y2 receptor expressed in human 1321N1 cells assessed as inhibition of UTP-induced intracellular calcium mobilization at 100 uM by FLUOstar plate reader
- Format: functional, cell-based
One number for each entry, in %.

# annotated cases, reported inhibition shown
>>> print(df.to_string())
                                   molecule  measured_metric  unit_abbrev  experimental_value
0  CCOP(=O)(CNC(=O)CCCNC(=O)[C@H]1O[C@@H](n2cnc3c(N)ncnc32)[C@H](O)[C@@H]1O)OCC       inhibition            %                  32
1  CCOP(=O)(Cc1ccc(NC(=O)CCCNC(=O)[C@H]2O[C@@H](n3ccc(=O)[nH]c3=O)[C@H](O)[C@@H]2O)cc1)OCC       inhibition            %                   6
2  CCOP(=O)(CCNC(=O)CNC(=O)[C@H]1O[C@@H](n2ccc(=O)[nH]c2=O)[C@H](O)[C@@H]1O)OCC       inhibition            %                  -7
3  CCOP(=O)(Cc1ccc(NC(=O)CNC(=O)[C@H]2O[C@@H](n3ccc(=O)[nH]c3=O)[C@H](O)[C@@H]2O)cc1)OCC       inhibition            %                  22
4  CCOP(=O)(Cc1ccc(NC(=O)CCCNC(=O)[C@H]2O[C@@H](n3cnc4c(N)ncnc43)[C@H](O)[C@@H]2O)cc1)OCC       inhibition            %                  37

Go through the items and report each one's inhibition.
1. CCOP(=O)(CNC(=O)CNC(=O)[C@H]1O[C@@H](n2cnc3c(N)ncnc32)[C@H](O)[C@@H]1O)OCC
2. CCOP(=O)(Cc1ccc(NC(=O)CCNC(=O)[C@H]2O[C@@H](n3ccc(=O)[nH]c3=O)[C@H](O)[C@@H]2O)cc1)OCC

Reply |
1. 61
2. 10

###

Record form. Attribute: Activity. Fill in for each entry.
- System Tested: P2Y purinoceptor 6 (Rattus norvegicus)
- Protocol Details: Antagonist activity at rat P2Y6 receptor expressed in human 1321N1 cells assessed as inhibition of UDP-induced receptor activation at 100 uM relative to UDP
- Format: functional, cell-based
- Design: scale not given: the % may be the effect or the level left
The reply must contain the numeric value and, after it, the unit.

>>> df
                                   molecule  experimental_value
0  CCOP(=O)(Cc1ccc(NC(=O)CNC(=O)[C@H]2O[C@@H](n3ccc(=O)[nH]c3=O)[C@H](O)[C@@H]2O)cc1)OCC                 -7%
1  CCOP(=O)(Cc1ccc(NC(=O)CCNC(=O)[C@H]2O[C@@H](n3cnc4c(N)ncnc43)[C@H](O)[C@@H]2O)cc1)OCC                 -7%
2  CCOP(=O)(Cc1ccc(NC(=O)CCNC(=O)[C@H]2O[C@@H](n3ccc(=O)[nH]c3=O)[C@H](O)[C@@H]2O)cc1)OCC                 -5%
3  CCOP(=O)(CNC(=O)CNC(=O)[C@H]1O[C@@H](n2ccc(=O)[nH]c2=O)[C@H](O)[C@@H]1O)OCC                 12%
4  CCOP(=O)(CNC(=O)CCNC(=O)[C@H]1O[C@@H](n2ccc(=O)[nH]c2=O)[C@H](O)[C@@H]1O)OCC                -16%

Then there is this compound:
Ask | Query Activity on P2Y purinoceptor 6 (Rattus norvegicus) for CCOP(=O)(CNC(=O)CNC(=O)[C@H]1O[C@@H](n2cnc3c(N)ncnc32)[C@H](O)[C@@H]1O)OCC
Reply | 6%

Reference source for all entries: ChEMBL document CHEMBL1155882
